The following molecules are listed with their measured TGI values.
System: SF-268
Assay: Anticancer activity against human SF268 cells after 48 hrs by SRB assay
Format: functional
Conditions: SF-268, 48 h
REPORTED_PROPERTY: TGI (µM)

In [3]: df
Out[3]:
                           molecular_string  result_unit  meas_value
0  O=C(NCCNc1nccc(-c2c(-c3cccc(O)c3)nc3sccn23)n1)c1ccccc1           µM          87
1  COc1cccc(-c2nc3sccn3c2-c2ccnc(NCCNC(=O)Nc3cccc(C(F)(F)F)c3)n2)c1           µM        43.4
2  O=C(NCCNc1nccc(-c2c(-c3cccc(O)c3)nc3sccn23)n1)c1ccccc1O           µM        24.9
3  O=C(NCCNc1nccc(-c2c(-c3cccc(O)c3)nc3sccn23)n1)Nc1cccc(C(F)(F)F)c1           µM        14.6

* * *

Test system: PC-3
Test: Anticancer activity against human PC3 cells after 48 hrs by SRB assay
Assay type: functional
Conditions: PC-3, 48 h
REPORTED_PROPERTY: TGI (µM)

>>> df
                           molecular_string  meas_value
0  O=C(NCCNc1nccc(-c2c(-c3cccc(O)c3)nc3sccn23)n1)c1ccccc1        65.7
1  COc1cccc(-c2nc3sccn3c2-c2ccnc(NCCNC(=O)Nc3cccc(C(F)(F)F)c3)n2)c1        11.9
2  O=C(NCCNc1nccc(-c2c(-c3cccc(O)c3)nc3sccn23)n1)Nc1cccc(C(F)(F)F)c1        12.6
3  O=C(NCCNc1nccc(-c2c(-c3cccc(O)c3)nc3sccn23)n1)c1ccccc1O        77.6

* * *

Test system: UACC-62
Assay: Anticancer activity against human UACC62 cells after 48 hrs by SRB assay
Format: functional
Conditions: UACC-62, 48 h
Reported TGI is given for each of the following compounds.
REPORTED_PROPERTY: TGI

In [3]: df
Out[3]:
                           molecular_string  reported_property  meas_value
0  COc1cccc(-c2nc3sccn3c2-c2ccnc(NCCNC(=O)Nc3cccc(C(F)(F)F)c3)n2)c1                TGI     7.48 µM
1  O=C(NCCNc1nccc(-c2c(-c3cccc(O)c3)nc3sccn23)n1)c1ccccc1                TGI     1.37 µM
2  O=C(NCCNc1nccc(-c2c(-c3cccc(O)c3)nc3sccn23)n1)Nc1cccc(C(F)(F)F)c1                TGI     6.51 µM
3  O=C(NCCNc1nccc(-c2c(-c3cccc(O)c3)nc3sccn23)n1)c1ccccc1O                TGI     96.9 µM

* * *

Recorded TGI, one value per entry.
Test system: SK-MEL-2
Experiment: Anticancer activity against human SK-MEL-2 cells after 48 hrs by SRB assay
Type: functional
Conditions: SK-MEL-2, 48 h
REPORTED_PROPERTY: TGI (µM)

>>> df
                           molecular_string  reported_property  result_unit  meas_value
0  O=C(NCCNc1nccc(-c2c(-c3cccc(O)c3)nc3sccn23)n1)Nc1cccc(C(F)(F)F)c1                TGI           µM        6.07
1  O=C(NCCNc1nccc(-c2c(-c3cccc(O)c3)nc3sccn23)n1)c1ccccc1O                TGI           µM        15.9
2  O=C(NCCNc1nccc(-c2c(-c3cccc(O)c3)nc3sccn23)n1)c1ccccc1                TGI           µM        12.9
3  COc1cccc(-c2nc3sccn3c2-c2ccnc(NCCNC(=O)Nc3cccc(C(F)(F)F)c3)n2)c1                TGI           µM        4.46
